In this section we review reported normalised viability values for a set of molecules.
# System: Hs578T
# experiment description: normalised viability (% of control), CellTiter-Blue; higher = more viable cells (about 100 = DMSO control)
# stated conditions: 10000 nM; incubation time: 72 h
reported endpoint: normalised viability (%)

{"smiles code": "C[C@@H](C(=O)O)c1ccc(-c2ccccc2)c(F)c1", "measure unit": "%", "numeric value": 92.6}
{"smiles code": "C[C@@H]1C[C@H]2[C@@H]3CCC4=CC(=O)C=C[C@]4(C)[C@@]3(F)[C@@H](O)C[C@]2(C)[C@@]1(O)C(=O)CO", "measure unit": "%", "numeric value": 98}
{"smiles code": "NC(=O)c1cccc2cn(-c3ccc([C@@H]4CCCNC4)cc3)nc12", "measure unit": "%", "numeric value": 80.7}
{"smiles code": "Cc1c(C(=O)Nc2ccc(N3C[C@@H](C)O[C@@H](C)C3)nc2)cccc1-c1ccc(OC(F)(F)F)cc1", "measure unit": "%", "numeric value": 87}
{"smiles code": "O=C(c1cc(Cc2n[nH]c(=O)c3ccccc23)ccc1F)N1CCN(C(=O)C2CC2)CC1", "measure unit": "%", "numeric value": 75.7}
{"smiles code": "C[C@@H](CN1CC(=O)NC(=O)C1)N1CC(=O)NC(=O)C1", "measure unit": "%", "numeric value": 92.1}

* * *

# Test system: HCC1143
# experiment description: drug sensitivity score (DSS), CellTiter-Glo (DSS (AUC-based score)); higher = stronger drug effect (viability inhibition or cytotoxicity); extreme values may be limits of the assay
# stated conditions: incubation time: 72 h
Below is a list of entries, each paired with its recorded drug sensitivity score value.

{"smiles code": "CC/C(=C(\\c1ccccc1)c1ccc(OCCN(C)C)cc1)c1ccccc1", "drug sensitivity score": 0}
{"smiles code": "CO[C@H]1C[C@@H]2CC[C@@H](C)[C@@](O)(O2)C(=O)C(=O)N2CCCC[C@H]2C(=O)O[C@H]([C@H](C)C[C@@H]2CC[C@@H](O)[C@H](OC)C2)CC(=O)[C@H](C)/C=C(\\C)[C@@H](O)[C@@H](OC)C(=O)[C@H](C)C[C@H](C)/C=C/C=C/C=C/1C", "drug sensitivity score": 5.31}
{"smiles code": "COc1cc(Nc2ncc(F)c(Nc3ccc4c(n3)N(COP(=O)(O)O)C(=O)C(C)(C)O4)n2)cc(OC)c1OC", "drug sensitivity score": 1.25}
{"smiles code": "CCc1c(C(=O)C(N)=O)c2c(OCC(=O)O)cccc2n1Cc1ccccc1", "drug sensitivity score": 0}
{"smiles code": "C[C@@H]1C[C@H]2[C@@H]3CCC4=CC(=O)C=C[C@]4(C)[C@@]3(F)[C@@H](O)C[C@]2(C)[C@@]1(O)C(=O)CO", "drug sensitivity score": 0}
{"smiles code": "CC[C@H](CC#N)OC(=O)N[C@@H](C)c1cccc(NC(=O)Nc2ccc(-c3cnco3)c(OC)c2)c1", "drug sensitivity score": 11.7}

* * *

# Test system: Hs578T
# experiment description: drug sensitivity score (DSS), CellTiter-Blue viability (DSS (AUC-based score)); higher = stronger viability inhibition; extreme values may be limits of the assay
# stated conditions: incubation time: 72 h
reported endpoint: drug sensitivity score

{"molecule": "Cc1c(C(=O)Nc2ccc(N3C[C@@H](C)O[C@@H](C)C3)nc2)cccc1-c1ccc(OC(F)(F)F)cc1", "target": "Hs578T", "reported endpoint": "drug sensitivity score", "numeric value": 0}
{"molecule": "Cc1cc2c(F)c(Oc3ncnn4cc(OC[C@@H](C)O)c(C)c34)ccc2[nH]1", "target": "Hs578T", "reported endpoint": "drug sensitivity score", "numeric value": 0}
{"molecule": "CC(C)C(=O)Nc1ccc([N+](=O)[O-])c(C(F)(F)F)c1 [Flutamide]", "target": "Hs578T", "reported endpoint": "drug sensitivity score", "numeric value": 0}
{"molecule": "CC[C@@H]1C(=O)N(C)c2cnc(Nc3ccc(C(=O)N[C@H]4CC[C@H](N5CCN(CC6CC6)CC5)CC4)cc3OC)nc2N1C(C)C", "target": "Hs578T", "reported endpoint": "drug sensitivity score", "numeric value": 11.3}
{"molecule": "COc1cc2c(Oc3ccc(NC(=O)C4(C(=O)Nc5ccc(F)cc5)CC4)cc3F)ccnc2cc1OCCCN1CCOCC1", "target": "Hs578T", "reported endpoint": "drug sensitivity score", "numeric value": 0.649}
{"molecule": "CC(C)C[C@H](NC(=O)[C@H](CCc1ccccc1)NC(=O)CN1CCOCC1)C(=O)N[C@@H](Cc1ccccc1)C(=O)N[C@@H](CC(C)C)C(=O)[C@@]1(C)CO1", "target": "Hs578T", "reported endpoint": "drug sensitivity score", "numeric value": 27.6}
{"molecule": "CN1CCN(c2nc(C3=C(c4c[nH]c5ccccc45)C(=O)NC3=O)c3ccccc3n2)CC1", "target": "Hs578T", "reported endpoint": "drug sensitivity score", "numeric value": 0}
{"molecule": "CCN(CC)CCOc1ccc(C(=C(Cl)c2ccccc2)c2ccccc2)cc1", "target": "Hs578T", "reported endpoint": "drug sensitivity score", "numeric value": 0}
{"molecule": "CO[C@H]1C[C@@H]2CC[C@@H](C)[C@@](O)(O2)C(=O)C(=O)N2CCCC[C@H]2C(=O)O[C@H]([C@H](C)C[C@@H]2CC[C@@H](O)[C@H](OC)C2)CC(=O)[C@H](C)/C=C(\\C)[C@@H](O)[C@@H](OC)C(=O)[C@H](C)C[C@H](C)/C=C/C=C/C=C/1C", "target": "Hs578T", "reported endpoint": "drug sensitivity score", "numeric value": 14.4}

* * *

# Tested on: CAL-120
# experiment description: normalised response (% of control), CellTiter-Glo; higher = more viable cells (100 = DMSO, 0 = benzethonium chloride kill control)
# stated conditions: incubation time: 72 h
normalised response values, listed per item
reported endpoint: normalised response (%)

{"molecule": "CC[C@@H]1C(=O)N(C)c2cnc(Nc3ccc(C(=O)N[C@H]4CC[C@H](N5CCN(CC6CC6)CC5)CC4)cc3OC)nc2N1C(C)C [Volasertib] (100 nM)", "target": "CAL-120", "measure unit": "%", "numeric value": 64.4}
{"molecule": "C[C@@H](C(=O)O)c1ccc(-c2ccccc2)c(F)c1 [Tarenflurbil] (10 nM)", "target": "CAL-120", "measure unit": "%", "numeric value": 96.7}
{"molecule": "COc1cc2c(cc1-c1c(C)noc1C)ncc1[nH]c(=O)n([C@H](C)c3ccccn3)c12 [I-BET151] (1000 nM)", "target": "CAL-120", "measure unit": "%", "numeric value": 71.2}
{"molecule": "Cc1cc2c(F)c(Oc3ncnn4cc(OC[C@@H](C)O)c(C)c34)ccc2[nH]1 [Brivanib] (1 nM)", "target": "CAL-120", "measure unit": "%", "numeric value": 98.9}
{"molecule": "CC(C)C(=O)Nc1ccc([N+](=O)[O-])c(C(F)(F)F)c1 [Flutamide] (1 nM)", "target": "CAL-120", "measure unit": "%", "numeric value": 103}
{"molecule": "Cn1cc(C[C@@H](N)C(=O)O)c2ccccc21 [1-methyl-D-tryptophan] (0.5 nM)", "target": "CAL-120", "measure unit": "%", "numeric value": 95.6}
{"molecule": "CC(C)C(=O)Nc1ccc([N+](=O)[O-])c(C(F)(F)F)c1 [Flutamide] (10 nM)", "target": "CAL-120", "measure unit": "%", "numeric value": 97.6}
{"molecule": "CCN(CC)CCOc1ccc(C(=C(Cl)c2ccccc2)c2ccccc2)cc1 [Clomifene] (10 nM)", "target": "CAL-120", "measure unit": "%", "numeric value": 106}

* * *

# Test system: CAL-51
# experiment description: normalised viability (% of control), CellTiter-Blue; higher = more viable cells (100 = DMSO, 0 = benzethonium chloride kill control)
# stated conditions: incubation time: 72 h

{"molecule": "CCN(CC)CCOc1ccc(C(=C(Cl)c2ccccc2)c2ccccc2)cc1 [Clomifene] (1 nM)", "target": "CAL-51", "normalised viability / %": 94.5}
{"molecule": "Cc1c(N)nc([C@H](CC(N)=O)NC[C@H](N)C(N)=O)nc1C(=O)N[C@H](C(=O)N[C@H](C)[C@@H](O)[C@H](C)C(=O)N[C@H](C(=O)NCCc1nc(-c2nc(C(=O)NCCC[S+](C)C)cs2)cs1)[C@@H](C)O)[C@@H](OC1OC(CO)C(O)C(O)C1OC1OC(CO)C(O)C(OC(N)=O)C1O)c1cnc[nH]1 (stereo partly drawn) [Bleomycin] (1 nM)", "target": "CAL-51", "normalised viability / %": 94.5}
{"molecule": "Cn1nnc2c(C(N)=O)ncn2c1=O [Temozolomide] (1 nM)", "target": "CAL-51", "normalised viability / %": 95.5}
